Molecular target: Aldo-keto reductase family 1 member C2 (Homo sapiens)
Sequence (P52895 whole entry): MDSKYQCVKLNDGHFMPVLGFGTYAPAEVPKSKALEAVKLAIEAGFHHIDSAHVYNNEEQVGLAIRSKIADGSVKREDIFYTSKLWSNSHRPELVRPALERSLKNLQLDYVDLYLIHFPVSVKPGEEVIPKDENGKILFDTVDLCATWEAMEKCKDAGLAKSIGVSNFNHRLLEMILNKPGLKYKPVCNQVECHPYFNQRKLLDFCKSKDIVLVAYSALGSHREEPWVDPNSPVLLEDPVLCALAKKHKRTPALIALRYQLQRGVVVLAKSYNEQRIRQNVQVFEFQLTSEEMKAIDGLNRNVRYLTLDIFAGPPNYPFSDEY
Experiment: Inhibition of human recombinant AKR1C2 transfected in Escherichia coli BL21 (DE3) pLysS competent cells using S-tetralol as substrate assessed as inhibition of NADP+ dependent substrate oxidation incubated for 10 mins by fluorescence microplate reader assay
assay.endpoint: pIC50
One number for each entry, as −log10 of the molar value.

Cc1ccc(-c2ccc(C(C)C(=O)O)cc2C(F)(F)F)cc1 (racemic) = 6.40
CCC(C(=O)O)c1ccc(-c2ccc([N+](=O)[O-])cc2)c(C(F)(F)F)c1 (racemic) = 6.47
COc1ccccc1-c1ccc(C(C)C(=O)O)cc1C(F)(F)F (racemic) = 5.53

I have 6 compounds here; please give me pIC50 for each one.
1. CC(C)(C(=O)O)c1ccc(-c2cc(Cl)cc(Cl)c2)c(F)c1
2. CCC(C(=O)O)c1ccc(-c2ccc3ccccc3c2)c(F)c1 (racemic)
3. O=C(O)C1(c2ccc(-c3ccc(Cl)c(Cl)c3)c(F)c2)CC1
4. CSc1cccc(-c2ccc(C(C)C(=O)O)cc2F)c1 (racemic)
5. Cc1cc(C(C)C(=O)O)ccc1-c1ccc(Cl)c(Cl)c1 (racemic)
6. COc1cccc(-c2ccc(C(C)C(=O)O)cc2F)c1 (racemic)

6.28
6.10
5.96
6.00
6.70
6.18

I have 8 compounds here; please give me pIC50 for each one.
1. CCC(C(=O)O)c1ccc(-c2ccc3nc(C)ccc3c2)c(C(F)(F)F)c1 (racemic)
2. CCC(C(=O)O)c1ccc(-c2ccc(Cl)nc2)c(C(F)(F)F)c1 (racemic)
3. CC(C(=O)O)c1ccc(-c2ccc3ccccc3c2)c(C(F)(F)F)c1 (racemic)
4. COc1cc(C(C)C(=O)O)ccc1-c1cc(C(F)(F)F)cc(C(F)(F)F)c1 (racemic)
5. Cc1cccc(-c2ccc(C(C)C(=O)O)cc2F)c1 (racemic)
6. O=C(O)C1(c2ccc(-c3cccc(C(F)(F)F)c3)c(F)c2)CC1
7. CC(C(=O)O)c1ccc(-c2cccnc2)c(F)c1 (racemic)
8. CC(C(=O)O)c1ccc(-c2ccccc2)c(F)c1 (stereo not given)

1. 6.35
2. 6.15
3. 6.08
4. 6.01
5. 6.18
6. 5.80
7. 5.87
8. 6.26

I have 3 compounds here; please give me pIC50 for each one.
1. CC(C(=O)O)c1ccc(-c2ccc(C(F)(F)F)cc2)c(F)c1 (racemic)
2. CCC(C(=O)O)c1ccc(-c2cccc([N+](=O)[O-])c2)c(F)c1 (racemic)
3. CCC(C(=O)O)c1ccc(-c2ccnc(Cl)c2)c(C(F)(F)F)c1 (racemic)

6.54
6.04
6.35
